Catalogue of binders with associated rank of binding signal
Target of assay: mAb Mac2-158
Procedure details: circular peptide array
Give just the numeric value; rank need not be written.

WGTVCNNGWS (modifications not checked); 20
ESALWDC (modifications not checked); 1
DHVSCRGNESALW (modifications not checked); 8
QEEWGTVCNNGWS (modifications not checked); 9
CSGRVEVKVQEEW (modifications not checked); 7

Data point: RGNESALWDC (modifications not checked) ; rank of binding signal = 2

Query ESALWDCKHDGWG (modifications not checked) yields rank of binding signal of 17

Form field rank of binding signal, entry VSCRGNESALWDC (modifications not checked) : 5

Where do these numbers come from? They come from patent US20250213707A1.
